ASSAY OVERVIEW: plasmodial surface anion channel blockers, osmotic lysis – cell-based, P. falciparum Indochina, OD700, 2 h, primary screen (AID 1155);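 note: lysis reports solute entry through the parasite surface anion channel PSAC; channel blockers reduce lysis of infected cells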
CONDITION NOTES: P. falciparum Indochina infected erythrocytes, higher = more signal, called active from +8 up or from −8 down
Would you mind labelling by z-score? At or over 0.6 is Criterion met, under is Criterion not met.

[[record]]
compound = "NCCCCCCNC(=O)[C@@H]1C[C@@H]2C(=O)N3CCC[C@H]3C(=O)N2[C@@H]1c1cccc(OCCO)c1"
label_class = "Criterion not met"

[[record]]
compound = "C=CCC(OC(C)=O)[C@@H]1[C@@H](N(Cc2cccc3ccccc23)C(=O)Cc2ccc(OC)cc2)c2cc(OCCCO)ccc2N1C(=O)c1ccc2ccccc2c1 (stereo partly specified)"
label_class = "Criterion not met"

[[record]]
compound = "[N-]=[N+]=NCc1ccccc1[C@@H]1OC(c2ccc(OCCCO)cc2)=N[C@]1(Cc1ccccc1N=[N+]=[N-])C(=O)O"
label_class = "Criterion met"

[[record]]
compound = "C=CCOC(=O)[C@@H]1[C@H]2C(=O)O[C@H](c3ccccc3)[C@H](c3ccccc3)N2[C@H](c2ccc(OCCOC(=O)[C@H]3C[C@H]4C(=O)N5CCC[C@H]5C(=O)N4[C@H]3c3cccc(OCCO)c3)cc2)[C@@]12C(=O)Nc1ccc(I)cc12"
label_class = "Criterion met"

[[record]]
compound = "CN1C(=O)[C@@H]2[C@@H](CC(COc3ccccc3)=C3[C@@H](CCc4ccccc4)OB(O)C[C@@H]32)C1=O"
label_class = "Criterion met"

[[record]]
compound = "CN(C)CCCC[C@@H]1NC(=O)[C@@H]2C[C@H](C(=O)NCCCCCN)[C@H](c3cccc(OCCO)c3)N2C1=O"
label_class = "Criterion not met"


---

The following compounds are listed with their measured z-score values.
ASSAY OVERVIEW: resazurin metabolic signal in A549 cells – cell-based, resazurin fluorescence, 24 h, PK04 Diversity Set, profiling panel (AID 1171); note: test concentration not given here
CONDITION NOTES: A549 viability, higher = more signal, called active from +8 up or from −8 down
Activity calls are given as the source filed them.
READOUT: z-score

[[record]]
compound = "CCCC[C@H]1C[C@@H]1[C@@H]1N(C(C)=O)[C@H](c2cccc(OC)c2)CC12CC2"
observed_result = "2.94 (inactive)"

[[record]]
compound = "COc1ccc([Si](C)(C)[C@@H]2[C@@H](CC(=O)N3Cc4ccccc4C[C@H]3CO)O[C@]3(C(=O)N(Cc4ccc(N5CCOC5=O)cc4)c4ccccc43)[C@H]2C)cc1"
observed_result = "-0.674 (inactive)"

[[record]]
compound = "CCOC(=O)C[C@H]1[C@H](OC(=O)c2ccccc2-c2ccccc2)[C@@H](NC(=O)c2ccc3ccccc3c2)c2cc(OCCCO)ccc2N1C(=O)Cc1ccc(OC)cc1"
observed_result = "-0.439 (inactive)"

[[record]]
compound = "CC1CC/C=C\\[C@H]2OC34C=CCN(Cc5ccccc5)C(=O)[C@H]3N(CCCCCCO)C(=O)[C@@H]4C2C(=O)O1 (some centres not stated)"
observed_result = "0.919 (inactive)"

[[record]]
compound = "CCOC(=O)C[C@H]1[C@H](OC(=O)Cc2ccc3c(c2)OCO3)[C@@H](NC(=O)Cc2ccc(OC)cc2)c2cc(OCCCO)ccc2N1C(=O)Cc1ccc(OC)cc1"
observed_result = "-0.379 (inactive)"

[[record]]
compound = "COC(=O)[C@@]1(Cc2ccccc2)[C@H]2c3cc(C(=O)N(C)C)n(CCO)c3C[C@H]2CN1C(=O)c1ccccc1"
observed_result = "-0.723 (inactive)"

[[record]]
compound = "C=C(C)[C@@H]1CC=C(C(O)C2C=CC3C(=O)N(C)C(=O)C3N2Nc2ccc([N+](=O)[O-])cc2[N+](=O)[O-])CC1 (some centres not stated)"
observed_result = "-0.375 (inactive)"

